Recorded pIC50 for the following compounds
- TARGET: hP2X3 (Homo sapiens, UniProt P56373)
- Construct: expressed in transfected cells; host or cells: e.g. HEK293 or 1321N1
- Sequence (P56373 whole entry): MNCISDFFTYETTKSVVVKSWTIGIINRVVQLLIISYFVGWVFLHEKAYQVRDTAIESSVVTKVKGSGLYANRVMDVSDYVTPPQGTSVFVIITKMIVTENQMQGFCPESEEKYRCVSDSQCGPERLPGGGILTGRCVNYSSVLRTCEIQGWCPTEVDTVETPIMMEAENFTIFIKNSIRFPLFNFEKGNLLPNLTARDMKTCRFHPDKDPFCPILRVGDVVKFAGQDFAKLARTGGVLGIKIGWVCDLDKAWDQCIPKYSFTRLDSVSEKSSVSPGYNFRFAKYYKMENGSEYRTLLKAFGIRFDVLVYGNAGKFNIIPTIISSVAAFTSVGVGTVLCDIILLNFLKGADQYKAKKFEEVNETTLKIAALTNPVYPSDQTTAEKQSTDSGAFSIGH
- TEST DETAILS: Calcium uptake assay (P2X antagonist assay), P2X3 homomer
- Type: cell-based
- MEASUREMENT CONDITIONS: Ca influx (calcium uptake assay), hP2X3; read-out: IC50 hP2X3
pIC50: −log10 of the molar value.

// solved cases for pIC50 follow
COCCOc1cc(C(=O)N[C@H](C)c2ccc(C)nc2)cc(-c2ccc(C)cc2)c1    > 7.00
Cc1ccc(-c2cc(OC(C)CO)cc(C(=O)N[C@H](C)c3ccc(C)nc3)c2)c(C#N)c1 (stereo partly shown)    > 7.00
Cc1ccc(-c2cc(Oc3ncccn3)cc(C(=O)N[C@H](C)c3ccc(C)nc3)c2)nc1    > 7.00

Consider now this further compound.
In: Dear colleague, I am looking for the recorded pIC50 of the following compound: `Cc1ccc(-c2cc(CN3CCN(C)CC3)cc(C(=O)NCc3ccc(C)nc3)c2)nc1`
Out: 6.30 to 7.00

====

- TARGET: hP2X2/3H (Homo sapiens, UniProt P56373+Q9UBL9)
- Construct: expressed in transfected cells; host or cells: e.g. HEK293 or 1321N1
- Sequence (Q9UBL9 whole entry): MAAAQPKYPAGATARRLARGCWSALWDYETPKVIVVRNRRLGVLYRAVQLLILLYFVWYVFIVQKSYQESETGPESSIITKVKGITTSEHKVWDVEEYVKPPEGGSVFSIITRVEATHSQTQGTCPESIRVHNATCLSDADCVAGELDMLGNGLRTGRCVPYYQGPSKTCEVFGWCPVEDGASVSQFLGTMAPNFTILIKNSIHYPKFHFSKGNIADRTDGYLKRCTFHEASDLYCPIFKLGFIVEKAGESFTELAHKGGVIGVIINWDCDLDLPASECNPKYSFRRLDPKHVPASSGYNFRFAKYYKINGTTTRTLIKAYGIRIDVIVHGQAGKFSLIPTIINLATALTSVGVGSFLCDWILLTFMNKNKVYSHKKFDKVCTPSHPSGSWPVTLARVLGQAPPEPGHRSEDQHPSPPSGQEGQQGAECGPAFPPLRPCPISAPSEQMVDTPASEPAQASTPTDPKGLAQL
- Sequence (P56373 whole entry): as the sequence (P56373 whole entry) above
- TEST DETAILS: Calcium uptake assay (P2X antagonist assay), P2X2/3 heteromer
- Assay type: cell-based
- MEASUREMENT CONDITIONS: calcium uptake assay, hP2X2/3H; read-out: IC50 hP2X2/3H (nM), Ca Influx
QUANTITY NAME: IC50

// solved cases for IC50 follow
COc1ccc(CNC(=O)c2cc(C(=O)N3CCCC3)cc(-c3ccc(C)cc3)c2)cn1    < 100 nM
Cc1ccc(-c2cc(C(=O)NC(C)c3ccc(Cl)c(S(C)(=O)=O)c3)cc(C(=O)N3CCCC3)c2)cc1 (stereo not shown)    < 100 nM
Cc1ccc(-c2cc(C#N)cc(C(=O)NCc3cnc(C)nc3)c2)cc1    100 to 500 nM

Consider now this further molecule.
In: Dear colleague, I am looking for the recorded IC50 of the following molecule: `COc1ncc(CNC(=O)c2cc(C(=O)N3CC(O)C3)cc(-c3ccc(C)cc3)c2)cn1`
Out: 100 to 500 nM

====

Recorded IC50 for the following compounds
- TARGET: hP2X2/3H (Homo sapiens, UniProt P56373+Q9UBL9)
- Construct: expressed in transfected cells; host or cells: e.g. HEK293 or 1321N1
- TEST DETAILS: Calcium uptake assay (P2X antagonist assay), P2X2/3 heteromer
- Assay type: cell-based
- MEASUREMENT CONDITIONS: calcium uptake assay, hP2X2/3H; read-out: IC50 hP2X2/3H (nM), Ca Influx

// solved cases for IC50 follow
Cc1ccc(-c2cc(C(=O)N[C@H](C)c3cnc(C)nc3)cc(C(=O)N3CCN4CCCC4C3)c2)cc1 (some centres unmarked)    < 100 nM
Cc1ccc(-c2cc(C(=O)NCc3cccc(-n4cnnc4)c3)cc(C(=O)N3CCCC3)c2)cc1    100 to 500 nM
Cc1ccc(-c2cc(C(=O)NCc3ccc(C)nc3)cc(C(=O)N3CC[C@@H](O)C3)c2)nc1    < 100 nM
Cc1ccc(-c2cc(C(=O)NCc3ccc(C)nc3)cc(C(=O)N3C4CCC3CC4)c2)cc1    < 100 nM
Cc1ccc(-c2cc(C(=O)N[C@H](C)c3ccc(C)nc3)cc(C(=O)N3CC[C@@H](O)C3)c2)nc1    < 100 nM
COc1ncc(CNC(=O)c2cc(C(=O)N3CCCC3)cc(-c3ccc(C)cc3)c2)cn1    < 100 nM
CCN(CC)C(=O)c1cc(C(=O)NCc2cnc(C)nc2)cc(-c2ccc(C)cc2)c1    100 to 500 nM
Cc1ccc(-c2cc(C(=O)NCc3cnc(C)nc3)cc(S(=O)(=O)CC(C)C)c2)cc1    < 100 nM

In: Dear colleague, I am looking for the recorded IC50 of the following compound: `Cc1ccc(-c2cc(C(=O)NCc3ccc4cccnc4c3)cc(C(=O)N3CCCC3)c2)cc1`
Out: 100 to 500 nM

In: Dear colleague, I am looking for the recorded IC50 of the following compound: Cc1ccc(-c2cc(C(=O)NCc3cnc(C)nc3)cc(C(=O)N3CC3C)c2)cc1 (centres unmarked)
Out: 501 to 1000 nM

In: Dear colleague, I am looking for the recorded IC50 of the following compound: `Cc1ccc(-c2cc(C(=O)NCc3cnc(C)nc3)cc(C(=O)N3CCOCC3)c2)cc1`
Out: 100 to 500 nM
